# target or system: T1, human CAPRIN-1 protein expressed on cell membrane surfaces of human cancer cells (human, UniProt Q14444 2-709)
# T1 construct: whole, on cells; Endogenous protein on human cancer cells; Flow cytometry was done without permeation of the cell membranes
# T1 sequence (looked up): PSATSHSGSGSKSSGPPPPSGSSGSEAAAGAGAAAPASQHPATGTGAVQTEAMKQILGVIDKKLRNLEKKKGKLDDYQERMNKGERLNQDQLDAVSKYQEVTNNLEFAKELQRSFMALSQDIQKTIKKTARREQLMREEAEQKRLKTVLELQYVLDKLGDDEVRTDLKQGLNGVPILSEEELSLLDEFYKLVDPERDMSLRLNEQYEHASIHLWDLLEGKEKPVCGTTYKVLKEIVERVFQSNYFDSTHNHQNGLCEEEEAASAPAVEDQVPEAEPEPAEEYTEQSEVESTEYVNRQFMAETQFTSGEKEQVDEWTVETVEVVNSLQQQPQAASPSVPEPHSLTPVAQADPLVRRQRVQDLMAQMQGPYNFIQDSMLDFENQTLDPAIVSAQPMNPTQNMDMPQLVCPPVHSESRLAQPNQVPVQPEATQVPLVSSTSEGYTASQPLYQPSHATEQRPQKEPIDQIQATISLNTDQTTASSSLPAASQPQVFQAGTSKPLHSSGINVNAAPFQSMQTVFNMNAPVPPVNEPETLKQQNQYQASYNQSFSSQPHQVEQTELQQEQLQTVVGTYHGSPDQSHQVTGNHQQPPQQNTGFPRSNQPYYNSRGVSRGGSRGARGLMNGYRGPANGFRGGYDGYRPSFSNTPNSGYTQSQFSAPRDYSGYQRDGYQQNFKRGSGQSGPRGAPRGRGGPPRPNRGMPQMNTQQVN
# assay name: flow cytometry on cancer cells

| binder | binding result |
| --- | --- |
| anti-CAPRIN-1 antibody (d) (antibody, V domains shown) VH: QSLEESGGDLVKPGASLTLTCTASGFSFSGSYYMSWVRQAPGKGLEWIAYIYIGDGVTAYANWAKGRFTISKASSTTVTLQMTSLTAADTATYFCARGNKLWGPGTLVTVSS VL: DVVMTQTPASVEAAVGGTVTIKCQASQSISSYLAWYQQKPGQPPKRLIYDASNLDSGVPSRFKGSGSGTDFTITISDLECADAATYYCQCTAVSSATIYGNAFGGGTEVVVK | binds |
| anti-CAPRIN-1 antibody (b) (antibody, V domains shown) VH: EQSLVESGGGLVQPGGSLRLSCAASGFSLSSHSLGWVRQAPGKGLEWIGDIRSGGSAYYANWAKGRFTISRDNSKNTLYLQMNSLRAEDTAVYYCTRTNGPSDLTNRLDLWGQGTLVTVSS VL: QVLTQSPSSLSASVGDRVTINCQASQSLYNNENLAWFQQKPGKVPKRLIYGASTLASGVSSRFSGSGSGTEFTLTISSLQCEDFAIYYCLGEFSCGSADCFAFGGGTKVEIK | binds |

Reference source for all entries: patent EP4640235A1
